tested_system: GPR40 of human origin (Homo sapiens)
Sequence (O14842 whole entry): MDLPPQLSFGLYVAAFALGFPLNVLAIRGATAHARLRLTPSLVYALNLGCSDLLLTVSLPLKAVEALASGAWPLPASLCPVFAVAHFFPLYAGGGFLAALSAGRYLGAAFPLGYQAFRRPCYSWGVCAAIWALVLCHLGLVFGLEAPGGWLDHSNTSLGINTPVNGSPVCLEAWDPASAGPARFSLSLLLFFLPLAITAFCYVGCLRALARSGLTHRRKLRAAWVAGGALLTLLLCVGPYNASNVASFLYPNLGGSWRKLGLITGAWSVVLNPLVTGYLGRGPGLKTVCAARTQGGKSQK
test_summary: Agonist action on GPR40 of human origin (intracellular Ca2+ change)
conditions: CHO cell strain stably expressing GPR40 of human origin; change in Ca2+ concentration, fluorescent calcium indicator
pEC50: −log10 of the molar value.
reported_endpoint: pEC50

Use these answered entries as a reference point.
COc1ccc(F)c(-c2cccc3c2CC[C@H]3Oc2ccc(-c3cc(O)n[s+]3[O-])cc2)c1 (stereo partly shown)    > 6.52
Cc1cc(OCCC(C)(C)O)cc(C)c1-c1cccc2c1OCC2Oc1ccc(-c2cc(O)n[s+]2[O-])cc1 (single isomer, unassigned) [Example 148-b]    5.52 to 6.52
[O-][s+]1nc(O)cc1-c1ccc(OCc2ccc(Oc3ccccc3)cc2)cc1 (single isomer, unassigned) [Example 160]    > 6.52

Task: What measured pEC50 is associated with Cc1ccc(-c2cccc3c2CC[C@H]3Oc2ccc(-c3cc(O)n[s+]3[O-])cc2)c2ccccc12 (stereo partly shown) on GPR40 of human origin (Homo sapiens)?
Result: 5.52 to 6.52

Task: Can you handle Cc1nc(OCCC(C)(C)O)ccc1Oc1cccc2c1CC[C@H]2Oc1ccc(-c2cc(O)n[s+]2[O-])cc1 (stereo partly shown) next?
Result: > 6.52

Task: Another: [O-][s+]1nc(O)cc1-c1ccc(O[C@@H]2CCc3c(-c4cccc5ccccc45)cccc32)cc1 (single isomer, unassigned)
Result: > 6.52

Task: Please answer likewise for [O-][s+]1nc(O)cc1-c1ccc(O[C@@H]2CCc3c(Oc4ccc(OC(F)(F)F)cc4)cccc32)cc1 (stereo partly shown)
Result: > 6.52

Task: Same again, this time with N#Cc1ccc(Oc2cccc3c2CC[C@H]3Oc2ccc(-c3cc(O)n[s+]3[O-])cc2)cc1N1CCOC1=O (stereo partly shown)
Result: > 6.52

Task: Thanks! And CC(C)(O)CCOc1ccc(Oc2cccc3c2CC[C@H]3Oc2ccc(-c3cc(O)n[s+]3[O-])cc2)cn1 (stereo partly shown) ?
Result: > 6.52

Task: Param item: CC(C)(O)CCOc1ccc(Oc2cccc3c2CC[C@H]3Oc2ccc(-c3cc(O)n[s+]3[O-])cc2)cc1 (stereo partly shown)
Result: > 6.52

Task: Would you mind doing CN1CC2(CCN(Cc3ccc(COc4ccc(-c5cc(O)n[s+]5[O-])cc4)cc3)CC2)c2ccccc21 (stereo not shown) as well?
Result: 5.52 to 6.52

Task: Please do the same for CN(C)C(=O)c1ccc(Oc2cccc3c2CC[C@H]3Oc2ccc(-c3cc(O)n[s+]3[O-])cc2)cc1 (stereo partly shown) as well.
Result: > 6.52

Task: Same question, Cc1ccc(Cl)c(-c2cccc3c2CC[C@H]3Oc2ccc(-c3cc(O)n[s+]3[O-])cc2)c1 (single isomer, unassigned) this time
Result: > 6.52

Data provenance: patent US8629102B2
